Source listed as the supplement of paper PMC7661543.

Tested on: SKBR3
Assay: relative cell number vs DMSO control (72 h) (% of DMSO); higher = less growth inhibition (more cells)
Details: sgRNA knockout: sgNT, 100 nM
assayMetric: relative cell number
Answer using only a numeral; do not append any unit.

Per the record, CC(C)C[C@@H](C=O)NC(=O)[C@H](CC(C)C)NC(=O)[C@H](CC(C)C)NC(=O)OCc1ccccc1 has relative cell number of 99.3

Reported relative cell number ( CN1CCN(c2ccc(C(=O)Nc3n[nH]c4ccc(Cc5cc(F)cc(F)c5)cc34)c(NC3CCOCC3)c2)CC1 ) = 82.9

relative cell number recorded for this molecule, O=C(O)C(Cc1c[nH]c2ccccc12)N1C(=O)c2ccccc2C1=O (stereo unspecified) , is 64.7

Value of relative cell number reported for the molecule COc1cc([C@@H]2c3cc4c(cc3[C@@H](O[C@@H]3O[C@@H]5CO[C@@H](C)O[C@H]5[C@H](O)[C@H]3O)[C@H]3COC(=O)[C@H]23)OCO4)cc(OC)c1O [Etoposide] is 50.1

Given item c1ccc2c(Oc3nc(Nc4ccc(N5CCOCC5)cc4)c4ncn(C5CCCCC5)c4n3)cccc2c1 , the value recorded as its relative cell number is 124

According to the records, this molecule COc1cccc2cc(-c3nc([C@H]4CC[C@H](C(=O)O)CC4)n4ncnc(N)c34)[nH]c12 displays relative cell number of 116

Record COC(=O)/C=C/C(=O)OC [DimethylFumarate] . Reported relative cell number: 98.3

Record CCNC(=O)c1noc(-c2cc(C(C)C)c(O)cc2O)c1-c1ccc(CN2CCOCC2)cc1 , field relative cell number: 30

So for COc1cc2c(Oc3ccc4[nH]c(C)cc4c3F)ncnc2cc1OCCCN1CCCC1 , the logged relative cell number turned out to be 85.8

Data point: CCN1CCN(c2ccc(Nc3cc(N(C)C(=O)Nc4c(Cl)c(OC)cc(OC)c4Cl)ncn3)cc2)CC1 ; relative cell number = 106

Lab note: measured relative cell number of O=c1[nH]cc(F)c(=O)[nH]1 was 79.7

# relative cell number of Cc1nc(Nc2n[nH]c3c2CN(C(=O)N[C@H](CN(C)C)c2ccccc2)C3(C)C)c2sccc2n1 = 52.5

Memo: CN1C(=O)C(Cc2c[nH]c3ccccc23)NC1=S (stereo unspecified) , reported relative cell number: 92.2

So, NC(=O)Nc1sc(-c2ccc(F)cc2)cc1C(N)=O ? Its relative cell number was 93.1

The molecule O=c1ncccn1[C@@H]1O[C@H](CO)[C@@H](O)[C@H]1O showed relative cell number equal to 83.6

Noted for Cc1ccc(F)c(NC(=O)Nc2ccc(-c3cccc4[nH]nc(N)c34)cc2)c1 : its relative cell number reads 107

====

Tested on: SKBR3
Assay: relative cell number vs DMSO control (72 h) (% of DMSO); higher = less growth inhibition (more cells)
Conditions: sgRNA knockout: sgNT, 10 nM
Task for the reader: assign each of the following compounds its reported relative cell number.
Output: the number by itself.

// recorded relative cell number for CC(C)[C@]12O[C@H]1[C@@H]1O[C@]13[C@]1(O[C@H]1C[C@H]1C4=C(CC[C@@]13C)C(=O)OC4)[C@@H]2O [Triptolide] : 54.6

// field: relative cell number; key: CNC(=O)c1cc(Oc2ccc(NC(=O)Nc3ccc(Cl)c(C(F)(F)F)c3)c(F)c2)ccn1 ; value = 84.4

Quick note, relative cell number for Clc1ccc(C2(c3ccc(-c4cn[nH]c4)cc3)CCNCC2)cc1 landed at 70.8

Please fill in: relative cell number reported for COc1cc(C(=O)N2CCC(N3CCN(C)CC3)CC2)ccc1Nc1ncc2c(n1)N(C)c1ccccc1C(=O)N2C = 111

Query CS(=O)(=O)c1cccc(CNc2nc(Nc3ccc4c(c3)CCC(=O)N4)ncc2C(F)(F)F)c1 yields relative cell number of 85.7

For record O=C1NC(=O)[C@@H](c2cn3c4c(cccc24)CCC3)[C@@H]1c1c[nH]c2ccccc12 [Tivantinib] the listed relative cell number is 94.9

Briefly, relative cell number measured for S=c1nc[nH]c2nc[nH]c12 : 112

Record summary for C=CCn1c(=O)c2cnc(Nc3ccc(N4CCN(C)CC4)cc3)nc2n1-c1cccc(C(C)(C)O)n1 : reported relative cell number = 112

For this compound ( C=CC[C@@H]1/C=C(\C)C[C@H](C)C[C@H](OC)[C@H]2O[C@@](O)(C(=O)C(=O)N3CCCC[C@H]3C(=O)O[C@H](/C(C)=C/[C@@H]3CC[C@@H](O)[C@H](OC)C3)[C@H](C)[C@@H](O)CC1=O)[C@H](C)C[C@@H]2OC ), measured relative cell number is 108

Noted for Cc1ccc(C(=O)Cn2c3c(sc2=N)CCCC3)cc1 : its relative cell number reads 133

Entry Cc1cc2c(C(C)C)c(O)c(O)c(C=O)c2c(O)c1-c1c(C)cc2c(C(C)C)c(O)c(O)c(C=O)c2c1O , relative cell number reported as 101

Record Cc1ccc(S(=O)(=O)OCC(=O)Nc2ccc(C(=O)O)c(O)c2)cc1 . Reported relative cell number: 83.3

Per the record, COc1nc(N)nc2c1ncn2[C@@H]1O[C@H](CO)[C@@H](O)[C@@H]1O has relative cell number of 100

So for O=C(c1cc(Cc2n[nH]c(=O)c3ccccc23)ccc1F)N1CCN(C(=O)C2CC2)CC1 , the logged relative cell number turned out to be 87.7

Noted for CC(C)C[C@H](NC(=O)[C@H](CCc1ccccc1)NC(=O)CN1CCOCC1)C(=O)N[C@@H](Cc1ccccc1)C(=O)N[C@@H](CC(C)C)C(=O)[C@@]1(C)CO1 : its relative cell number reads 33.5

====

Can you tell me relative cell number for the items I'm about to list?
Test system: BT-20
Assay: relative cell number vs DMSO control (72 h) (% of DMSO); higher = less growth inhibition (more cells)
Details: sgRNA knockout: sgNT, 100 nM
I only need the number, thanks.

Data point: Cc1nc(Nc2n[nH]c3c2CN(C(=O)N[C@H](CN(C)C)c2ccccc2)C3(C)C)c2sccc2n1 ; relative cell number = 46

Entry C=CCn1c(=O)c2cnc(Nc3ccc(N4CCN(C)CC4)cc3)nc2n1-c1cccc(C(C)(C)O)n1 [MK1775] , relative cell number reported as 84.2

The value of relative cell number measured for the compound Cc1cc(C2CCCCC2)n(O)c(=O)c1 [Ciclopirox] turned out to be 95.2

Lab note: N#Cc1ccc(C(c2ccc(C#N)cc2)n2cncn2)cc1 [Letrozole] gave relative cell number of 95.8

// CN1CCc2c(c3ccccc3n2Cc2ccc(C(=O)NO)cc2)C1 [TubastatinA] : relative cell number value = 97.3

response.value for CC(C)C[C@H](NC(=O)[C@H](CCc1ccccc1)NC(=O)CN1CCOCC1)C(=O)N[C@@H](Cc1ccccc1)C(=O)N[C@@H](CC(C)C)C(=O)[C@@]1(C)CO1 [Carfilzomib] (field: relative cell number) = 21.4

Sample COc1cccc2cc(-c3nc([C@H]4CC[C@H](C(=O)O)CC4)n4ncnc(N)c34)[nH]c12 [OSI027] ; relative cell number observed: 113

For record COc1ccc(-c2ccc3c(N4CCOCC4)nc(N4C[C@@H](C)O[C@@H](C)C4)nc3n2)cc1CO the listed relative cell number is 119

====

Tested on: HCC-38
Test: relative cell number vs DMSO control (72 h) (% of DMSO); higher = less growth inhibition (more cells)
Conditions: sgRNA knockout: sgNT, 10000 nM
Exercise: for every item that follows, state its recorded relative cell number.
Could you keep your reply to the number by itself?

GET /value?item= O=c1ncccn1[C@@H]1O[C@H](CO)[C@@H](O)[C@H]1O &field=relative cell number returns 115

Record summary for C=CC[C@@H]1/C=C(\C)C[C@H](C)C[C@H](OC)[C@H]2O[C@@](O)(C(=O)C(=O)N3CCCC[C@H]3C(=O)O[C@H](/C(C)=C/[C@@H]3CC[C@@H](O)[C@H](OC)C3)[C@H](C)[C@@H](O)CC1=O)[C@H](C)C[C@@H]2OC : reported relative cell number = 114

What the record says about CNC(=O)c1cc(Oc2ccc(NC(=O)Nc3ccc(Cl)c(C(F)(F)F)c3)c(F)c2)ccn1 : relative cell number is 61.9

Lab note: CC[C@@]1(O)C(=O)OCc2c1cc1n(c2=O)Cc2cc3c(CN(C)C)c(O)ccc3nc2-1 gave relative cell number of 8.74

Entry CC1(C)CCC(c2ccc(Cl)cc2)=C(CN2CCN(c3ccc(C(=O)NS(=O)(=O)c4ccc(N[C@H](CCN5CCOCC5)CSc5ccccc5)c(S(=O)(=O)C(F)(F)F)c4)cc3)CC2)C1 — recorded relative cell number = 47.9

// relative cell number lookup, compound = CC(=O)c1c(C)c2cnc(Nc3ccc(N4CCNCC4)cn3)nc2n(C2CCCC2)c1=O , result: 42.2

Form field relative cell number, entry CC(C)CC(=O)Nc1n[nH]c2c1CN(C(=O)C1CCN(C)CC1)C2(C)C : 20.3

Lab note: measured relative cell number of CN(Cc1cnc2nc(N)nc(N)c2n1)c1ccc(C(=O)N[C@@H](CCC(=O)O)C(=O)O)cc1 [Methotrexate] was 35.2

Value of relative cell number reported for the compound O=C(O)CC[C@H]1CC[C@@](c2cc(F)ccc2F)(S(=O)(=O)c2ccc(Cl)cc2)CC1 is 115

Record summary for C[C@@H](Oc1cc(-n2cnc3ccc(CN4CCN(C)CC4)cc32)sc1C(N)=O)c1ccccc1C(F)(F)F : reported relative cell number = 17.6

So, CCOC(=O)c1ccc(N2NC(=O)C(=Cc3ccc([N+](=O)[O-])o3)C2=O)cc1 ? Its relative cell number was 84.8

Item: COc1cc2ncnc(Nc3ccc(F)c(Cl)c3)c2cc1OCCCN1CCOCC1 | relative cell number: 92.4

For Cc1[nH]c(/C=C2\C(=O)Nc3ccc(S(=O)(=O)N(C)c4cccc(Cl)c4)cc32)c(C)c1C(=O)N1CCN(C)CC1 the compound record lists relative cell number as 55.2

# relative cell number (compound: CCOc1cc2ncc(C#N)c(Nc3ccc(OCc4ccccn4)c(Cl)c3)c2cc1NC(=O)/C=C/CN(C)C ) is 50

Noted for CC(C)n1c(/C=C/C(O)CC(O)CC(=O)O)c(-c2ccc(F)cc2)c2ccccc21 (stereo not given) : its relative cell number reads 65.4
